Measured values drawn from paper PMC12001967 for this set.

- test_system: T1, ProQ (Escherichia coli, UniProt P45577 1-232)
- T1 sequence: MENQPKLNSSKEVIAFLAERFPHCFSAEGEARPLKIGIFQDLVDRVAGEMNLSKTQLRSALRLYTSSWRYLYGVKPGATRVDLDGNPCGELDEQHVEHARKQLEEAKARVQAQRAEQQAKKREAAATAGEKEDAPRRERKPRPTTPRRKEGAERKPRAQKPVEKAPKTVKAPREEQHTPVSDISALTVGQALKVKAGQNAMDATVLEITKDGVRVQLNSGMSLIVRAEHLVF
- assay_details: EMSA; 25 mM Tris-HCl pH 7.5, 150 mM NaCl, 5% glycerol, 1 mM MgCl2, 1 nM 32P-RNA, 30 min at room temperature; native 6% PAGE in 0.5x TBE at 4 C
- reported_conditions: protein: recombinant; tags: pET-15b construct; label: 32P; terminator hairpin
result_type: Kd (nM)
Just the number please, in nM, no unit attached.

Take a look at these entries with their results.
binder	Kd, nM
malM-FinP (structured_RNA) RNA: GCUUUAUCAGCAGUGUAAAAGGCAAGGGGUAAUUACGCCCCACAGUGCUGAUUUUGCAACAACAGGUGCGUCUCCUGGCGCACCGAUUUU	78
malM-RepX (structured_RNA) RNA: GCUUUAUCAGCAGUGUAAAAGGCAAGGGGUAAUUACGCCCCACAGUGCUGAUUUUGCAACAUUAGGUGCGUCUCCUGGCGCACCGCUCU	61
FinP-malM (structured_RNA) RNA: GGAUACAUAGGAACCUCCUCACAAAGGAUUCUAUGGACUGUCGAUGCAGGGAGUUCACGUCUCCCUGCAUCGGCUUUUUUU	25

Next item in the queue.
Challenge: Need Kd, item cspE81-FinP-stem (structured_RNA) RNA: GGCCCUUCUGCUGCAAACGUAAUCGCUCUGUAAGAUACGUCAGCAAGAAUUCAACAGUCGCUUAAUCAGCGGCGAUUUU
Response given: 130
